System Name: T1, Anti-CD28 Fab (SEQ ID NOs: 696, 697)
T1 construct: In the phage ELISA the Fab was biotinylated and captured on neutravidin coated plates
T1 sequence (VH, as listed by the source, chain 1 of 2): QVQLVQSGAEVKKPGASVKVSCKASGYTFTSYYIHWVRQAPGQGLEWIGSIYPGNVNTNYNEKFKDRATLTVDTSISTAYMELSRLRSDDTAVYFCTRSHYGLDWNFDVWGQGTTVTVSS
T1 sequence (VL, as listed by the source, chain 2 of 2): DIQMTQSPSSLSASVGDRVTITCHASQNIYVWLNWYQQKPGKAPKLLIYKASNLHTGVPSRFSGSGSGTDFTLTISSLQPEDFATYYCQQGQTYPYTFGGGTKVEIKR
Measurement Description: phage ELISA on captured anti-CD28 Fab; competitor: CD28 antigen pre-incubated in the well
Where no end group is shown, it is not given here.
Exercise: state measured Anti-CD28 Fab signal in the presence of CD28 for each of the binders provided.

binder="YCDGHSLAYIAKCL (cysteine pairing not given here; also: fused to phage pIII, not shown: pIII filament protein of the bacteriophage to which the peptide is fused) [Phage-887]" recorded_result=0.06
binder="YCAGHSAEYMWKCL (cysteine pairing not given here; also: fused to phage pIII, not shown: pIII filament protein of the bacteriophage to which the peptide is fused) [Phage-883]" recorded_result=0.11
binder="YCEGHLPQYFMKCL (cysteine pairing not given here; also: fused to phage pIII, not shown: pIII filament protein of the bacteriophage to which the peptide is fused) [Phage-890]" recorded_result=0.07
binder="YCAGHLPEYLDKCL (cysteine pairing not given here; also: fused to phage pIII, not shown: pIII filament protein of the bacteriophage to which the peptide is fused) [Phage-880]" recorded_result=0.07

# next binder below
Prompt: Look up Anti-CD28 Fab signal in the presence of CD28 of YCAGHTQEYMYKCL (cysteine pairing not given here; also: fused to phage pIII, not shown: pIII filament protein of the bacteriophage to which the peptide is fused) [Phage-888] and report it.
Response: 0.05

Data provenance is patent US20260242478A1.
